recorded-conditions: in ethylene glycol, 278.15 K
quantity-kind: solubility (mole fraction)
Give only the figure.

Which solubility (mole fraction) is reported for this compound? "Nc1ccc(S(=O)(=O)Nc2ncccn2)cc1"
0.00034

----------
recorded-conditions: in water, 303.15 K
quantity-kind: solubility (mole fraction)

Which solubility (mole fraction) is reported for this molecule? "Nc1ccc(S(=O)(=O)Nc2ncccn2)cc1"
6.49e-06

----------
recorded-conditions: in ethylene glycol, 308.15 K
quantity-kind: solubility (mole fraction)
Give only the figure.

Which solubility (mole fraction) is reported for this compound? "Nc1ccc(S(=O)(=O)Nc2ncccn2)cc1"
0.000637

----------
recorded-conditions: in ethylene glycol, 318.15 K
quantity-kind: solubility (mole fraction)
Give only the figure.

Which solubility (mole fraction) is reported for this molecule? "Nc1ccc(S(=O)(=O)Nc2ncccn2)cc1"
0.000752

The measurements presented in this section are drawn from BigSolDB 2.1.
